B1: F1*; the commonest letter at each place (parent)
chain: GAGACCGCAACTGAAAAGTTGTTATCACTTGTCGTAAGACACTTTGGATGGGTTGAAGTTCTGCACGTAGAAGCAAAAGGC

Variants of: B1
assay name: fraction ligated after 30 min (ligated reads / total reads); higher = more ligase activity
settings: with F1*sub RNA substrate (template-directed ligation), 42 °C
quantity name: fraction ligated
Give the figure by itself; no unit, no explanation.

mutations	quantity name	experimental result
T32C G46C	fraction ligated	0.717
T25G T29G	fraction ligated	0.714

What value of fraction ligated has been recorded for this entry: G31A A56G
0.687

What value of fraction ligated has been recorded for this entry: A24G A56G
0.0845

What value of fraction ligated has been recorded for this entry: G55T A56C
0.014

What value of fraction ligated has been recorded for this entry: A24G T29C
0.741

What value of fraction ligated has been recorded for this entry: C40T G46C
0.79

What value of fraction ligated has been recorded for this entry: T29A G50C
0.195

What value of fraction ligated has been recorded for this entry: A39T A48G
0.778

What value of fraction ligated has been recorded for this entry: C28A T49A
0.679

What value of fraction ligated has been recorded for this entry: C26A C33G
0.792

What value of fraction ligated has been recorded for this entry: G31A T35C
0.813

What value of fraction ligated has been recorded for this entry: C26A T44G
0.78
